Test system: LOX IMVI melanoma
Assay: NCI-60 one-dose screen, 48 h (100 = growth as untreated, 0 = no growth, -100 = all killed)
Details: 10 µM unless noted
Compounds without any hit were thinned out: in the full panel of roughly 83,000, 20% have a hit.

smiles-text | unit | growth
COc1cc(NC(=O)c2cccc(-c3cc(=O)c4c(O)c(OC)c(OC)cc4o3)c2)cc(OC)c1OC | % | 33
COc1ccc(OC)c(Nc2nc3nonc3nc2Nc2cc(OC)ccc2OC)c1 | % | 34.3
COC(=O)[C@]12CC[C@@H](C)[C@H](C)[C@@H]1C1=CC[C@@H]3[C@@]4(C)C(C=O)=C[C@@](C)(CO)C4=CC[C@@]3(C)[C@]1(C)CC2 | % | 26.1
Cl.Fc1c[c-]c(-c2ccccn2)c(F)c1.[Pt].c1ccc([PH+](c2ccccc2)c2ccccc2[PH+](c2ccccc2)c2ccccc2)cc1 | % | -92.6
COc1ccc(-c2c(N)n[nH]c2-c2ccccc2O)cc1OC | % | 96.6
C/C(=N\NC(N)=S)c1nc2ccc(Cl)cc2[nH]1 | % | 43.7
CN(C)CCN1C(=O)c2cccc3c(-c4ccc(-c5nc6c7ccccc7c7ccccc7c6[nH]5)cc4)ccc(c23)C1=O | % | 58
COc1ccc(/C(C)=C(\c2ccc(Cl)cc2)c2ccc(OCCN3CCCCC3)cc2)cc1F | % | -73.1

* * *

System: A549/ATCC NSCLC
Assay: NCI-60 one-dose screen, 48 h
Details: 10 µM unless noted
Compounds without any hit were thinned out: in the full panel of roughly 83,000, 20% have a hit. Activity calls are given as the source filed them. Rule for the calls: active = growth percent below 10; inactive = the rest.
Possible outcomes: active, inactive

molecule | label-class
O=c1[nH]nc(-c2ccc(Cl)cc2)cc1Cc1ccccc1 | inactive
O=C1c2cccc3c(-c4ccc(-c5nc6c7ccccc7c7ccccc7c6[nH]5)cc4)ccc(c23)C(=O)N1CCN1CCNCC1 | inactive
N#C/C(=C\c1ccc(Br)cc1)n1nnc2cc(Cl)c(Cl)cc21 | inactive
Cc1cc(N2CCCCC2)nc(N(CCNc2ccnc3cc(Cl)ccc23)Cc2ccccn2)n1 | inactive
O=C(NCc1cn(Cc2cccc(Oc3ccccc3)c2)nn1)c1cccnc1NCc1ccc(Cl)cc1 | inactive
CCOC(=O)c1cnn2c(-c3ccc(Cl)cc3)nc(NCc3ccccc3)nc12 | inactive
O=C(Nc1ccc(N2CCCCC2)c(Cl)c1)c1ccc(Br)o1 | inactive
COc1ccc2cc(-c3ccc(C(=O)NN)c(C)n3)ccc2c1 | inactive
N#Cc1c(-c2ccccc2)nc(SCC2CO2)nc1N1CCOCC1 (stereo unspecified) | inactive
Cc1cccc(-c2cc(O)c(C(=O)N3CCOCC3)s2)c1 | inactive
O=C(NCCN1CCC(O)CC1)c1cc2c(o1)C(=O)c1ccccc1C2=O | active
N#Cc1c(N)n2c(nc1=Nc1ccc([N+](=O)[O-])cc1)sc1cc(Cl)ccc12 | inactive
CN(CCC(=O)/C(=C\c1ccccc1)c1ccc(Cl)cc1)Cc1ccccc1 | inactive
Nc1ccn(C2OC(F)(CO)C(O)C2F)c(=O)n1 (stereo unspecified) | inactive
NC(=S)c1csc(CCNC(=O)c2ccccc2)n1 | inactive
CCN(CC)CC(O)CNc1c2ccc(Cl)cc2nc2ccc(OC)cc12 (stereo unspecified) | active
COc1ccc(C2CC(c3cnccn3)=NN2)cc1OC (stereo unspecified) | inactive
CCCCOc1nc2ccc(Cl)cc2cc1/C=C/C(=O)/C=C1/CC(c2cc3cc(Cl)ccc3nc2OCCCC)Nc2ccccc2N1 (stereo unspecified) | inactive
Cc1cc(=O)[nH]c(N/N=C/c2cc(Br)ccc2O)n1 | inactive
CCOC(=O)C(=CNc1ccccc1[N+](=O)[O-])C(=O)OCC | inactive
Cc1[nH]c(-c2nc3ccccc3[nH]2)c(C)c1C(=O)NNc1ccc(Cl)cc1 | inactive
N=C(N)c1ccc(-c2ccc(-c3ccc(Cl)cn3)s2)cc1 | inactive
CN(CCCCCCCCNc1ccnc2ccccc12)Cc1ccc(-c2ccc(-c3ccc(C#N)cc3)s2)cc1 | active
Clc1ccc(-c2nnc(Cn3ccnc3)o2)cc1 | inactive
CCOC(=O)c1ccc(-c2ccc3cc(OC)ccc3c2)nc1C | inactive
CO/C(=C1/NC(=O)C(Cc2ccc(O)c(Br)c2)N(C)C(=O)C(C)NC(=O)CCC/C=C(\C)CCC(C)OC1=O)c1ccccc1 (stereo unspecified) | active
CN1C[C@@H](c2ccc(Cl)cc2)[C@]2(NC(=S)N(c3ccccc3)C2=O)[C@@]12C(=O)NC1C=CC(Br)=C[C@H]12 (stereo partly specified) | inactive
O=C(O)c1ccc(CO)o1 | inactive
O=C(CCCCCCCn1cc(-c2cccnc2)nn1)Nc1ccccc1-c1ccccc1 | inactive
Cn1cc(-c2ccc3nc(-c4ccc(CC(=O)Nc5cc(C(C)(C)C)no5)cc4)cnc3c2)cn1 | inactive
C=C1C(=O)O[C@H]2[C@H]1CC/C(Cn1cc(CNCCc3c[nH]c4ccc(Cl)cc34)nn1)=C\CC[C@@]1(C)O[C@@H]21 | inactive
COc1ccc(-c2cc(-c3cc(OC)ccc3OC)[nH]c(=O)c2C#N)cc1 | inactive
COc1cc(C(=O)Nc2cc(O)c(CC=C(C)C)c(O)c2)cc2c1O[C@]1(C)CC[C@@H](O)C(C)(C)[C@H]1C2 | inactive
NS(=O)(=O)Oc1ccc(-c2sc3cc(O)ccc3c2C(=O)c2ccc(OCCN3CCCCC3)cc2)cc1 | inactive
CCCCN1CCN(c2ccc3nc(-c4ccc5nc(-c6cc(OC)c(OC)c(OC)c6)[nH]c5c4)[nH]c3c2)CC1 | inactive
CCOc1cc(N)ccc1C(=O)NCCCN(CC)CC | inactive
CCCCCCCCn1cc(C2=C(c3coc4ccc(OC)cc34)C(=O)NC2=O)c2ccccc21 | inactive
Nc1c(-c2nc3ccc(Br)cc3c(=O)[nH]2)nnn1-c1ccccc1 | inactive
O=C1CSC(c2ccccc2)N1c1ccccc1 (stereo unspecified) | inactive
C=C(Cl)COC(=O)C(C)(C)O | inactive
CCCCCCNc1cc(C)nc2ccc(OC)cc12 | inactive

* * *

Tested on: MOLT-4 leukemia
Assay: NCI-60 one-dose screen, 48 h
Details: 10 µM unless noted
The panel holds about 83,000 compounds, 20% with a hit somewhere; the sample as a whole holds those more often. Activity calls are given as the source filed them. The calls were made as follows: active = growth percent below 10; inactive = the rest.
Classes used: class 1 = active, class 0 = inactive

compound | label-class
COc1ccc2c(c1)/C(=C\c1sc(=S)[nH]c1O)C(C(=O)O)=N2 | class 0
C=CCOc1cccc(/C=C2\SC(=Nc3ccc(O)cc3)NC2=O)c1 | class 0
CNC1(C#N)CCN(Cc2ccccc2)CC1 | class 0
COc1ccc(/C=C(\C#N)n2nnc3ccccc32)cc1 | class 0
C[C@H]1[C@H]2C3=CC[C@@H]4[C@@]5(C)C/C(=C/c6ccncc6)C(=O)C(C)(C)[C@@H]5CC[C@@]4(C)[C@]3(C)CC[C@@]2(C(=O)N2CCN(C)CC2)CC[C@@H]1C | class 0
O=C1N(c2ccccc2)C(=S)N[C@]12[C@H](c1ccccc1)C1CCCN1[C@]21C(=O)NC2C=CC(Cl)=C[C@H]21 (some centres not stated) | class 0
CCCCCCN(CCCCCC)CC(O)c1cccc2ccc(Cl)cc12 (configuration not stated) | class 0
N#Cc1c(-c2ccccc2)nc(SCC2CO2)nc1N1CCOCC1 (configuration not stated) | class 0
N#Cc1c(N)nc2c(nnn2-c2cccc(C(F)(F)F)c2)c1N | class 0
COc1cc2c(cc1OC)-c1ccc3cc4c(cc3c1N(CCCN(C)C)C2)OCO4 | class 1
Cc1cc(C)on1 | class 0
N#Cc1c(NC(=O)c2ccccc2I)sc2c1CCCC2 | class 0
O=C1Nc2ccccc2/C1=N/N=C/c1c[nH]c2ccccc12 | class 0
COc1cc(NC(=O)c2cccc(-c3cc(=O)c4c(OC)c(OC)c(OC)cc4o3)c2)cc(OC)c1OC | class 0
CO[C@H]1/C=C/O[C@@]2(C)Oc3c(C)c(O)c4c(c3C2=O)C(=O)C(/C=N/N(c2ccccc2)c2ccccc2)=C(NC(=O)/C(C)=C\C=C\[C@H](C)[C@H](O)[C@@H](C)[C@@H](O)[C@@H](C)[C@H](OC(C)=O)[C@@H]1C)C4=O | class 1
N#C/C=C(\c1ccc([N+](=O)[O-])cc1)n1nnc2cc(Cl)c(Cl)cc21 | class 0
O=C(Oc1ccc([N+](=O)[O-])cc1)c1ccc(CBr)cc1 | class 0

* * *

System: UACC-257 melanoma
Assay: NCI-60 one-dose screen, 48 h (100 = growth as untreated, 0 = no growth, -100 = all killed)
Conditions: 10 µM unless noted
This is part of a sample that, as a whole, favours compounds with a hit. Of some 83,000 tested, about 20% had one in any assay.
List of growth values.

compound | target-or-test-system | unit | growth
CN(C)CCN1C(=O)c2cccc3c(-c4ccc(-c5nc6c7ccccc7c7ccccc7c6[nH]5)cc4)ccc(c23)C1=O | UACC-257 melanoma | % | 110
Cc1ccc2c(n1)C(=O)C(Oc1ccc(F)cc1)=CC2=O | UACC-257 melanoma | % | 95.5
Cc1cc(N(CCCNc2ccnc3cc(Cl)ccc23)Cc2ccccn2)nc(N2CCOCC2)n1 | UACC-257 melanoma | % | 101
O=C1C2=C(CCN(Cc3ccccc3)C2)N2CCN=C2N1Cc1ccc(F)cc1F | UACC-257 melanoma | % | 13.6
O=C1NC(=S)S/C1=C\N1N=C(c2ccc(Cl)cc2)CC1c1ccc(F)cc1 (configuration not stated) | UACC-257 melanoma | % | 107
CN(C)c1ccc(/C=C2\C=C(c3ccccc3)N(CCc3ccccc3)C2=O)cc1 | UACC-257 melanoma | % | 76.8
COc1cc(/C=C/c2nc(Nc3ccc(S(=O)(=O)Nc4cc(C)on4)cc3)c3ccccc3n2)ccc1O | UACC-257 melanoma | % | 83.2
Nc1c(-c2nc3ccccc3c(=O)[nH]2)nnn1-c1ccc(Cl)cc1 | UACC-257 melanoma | % | 84.8
CC(=O)Nc1ccc2c(c1)Cc1c(F)cccc1-2 | UACC-257 melanoma | % | 110
CCOC(=O)Cc1csc2nc(-c3ccccc3)nn12 | UACC-257 melanoma | % | 119
O=C(/C=C/C12c3ccccc3C(c3ccccc31)C1C(=O)NC(=O)C12)c1ccccc1 (configuration not stated) | UACC-257 melanoma | % | 46.6
CCC(O)(C(c1ccccc1)c1ccccn1)C(c1ccccc1)c1ccccn1 (configuration not stated) | UACC-257 melanoma | % | 112
Nc1ccc(CCCCc2ccccc2)c(Cl)c1 | UACC-257 melanoma | % | 89
CN(CCCCCCCCNc1ccnc2ccccc12)Cc1ccc(-c2ccc(-c3ccc(C#N)cc3)s2)cc1 | UACC-257 melanoma | % | -38.7
CCCCn1c(=O)[nH]c(N)c(C(c2ccc(F)cc2)c2c(N)[nH]c(=O)n(CCCC)c2=O)c1=O | UACC-257 melanoma | % | 65.9
Nc1ccc(-c2cc3c(Nc4ccc(OCc5cccc(F)c5)c(Cl)c4)ncnc3s2)cc1 | UACC-257 melanoma | % | 18.3
Oc1[nH]c2ccccc2c1/C=c1/cc2c(c(-c3ccc(F)cc3)n1)=Nc1ccccc1-2 | UACC-257 melanoma | % | 20.9
COc1cc(NC(=O)c2cccc(-c3cc(=O)c4c(OC)c(OC)c(OC)cc4o3)c2)cc(OC)c1OC | UACC-257 melanoma | % | 52.8
CCC(C)NCc1ccccc1 (configuration not stated) | UACC-257 melanoma | % | 103
CS(=O)(=O)c1ccc(-c2nc3cc(Cl)ccc3n2CC(=O)N/N=C/c2ccc(Cl)cc2)cc1 | UACC-257 melanoma | % | 67.7
C=C1C(=O)O[C@H]2[C@H]1CC/C(Cn1cc(CNCCc3c[nH]c4ccc(Cl)cc34)nn1)=C\CC[C@@]1(C)O[C@@H]21 | UACC-257 melanoma | % | 53.4
CNCCNc1nc2ccccc2c2c(=O)c3cc(F)ccc3oc12 | UACC-257 melanoma | % | 99.4
COc1ccc(-c2cncnc2N)cc1OC | UACC-257 melanoma | % | 111
C=C(C=O)C1CCC2(C(=O)O)CCC3(C)C(CCC4C5(C)CCC(O)C(C)(C)C5CCC43C)C12 (configuration not stated) | UACC-257 melanoma | % | -46.4
O=c1[nH]c(NCc2nnnn2-c2ccc(Br)cc2)nc2sc3c(c12)CCCC3 | UACC-257 melanoma | % | 96
O=C(Nc1ccc(N2CCCCC2)c(Cl)c1)c1ccc(Br)o1 | UACC-257 melanoma | % | 67.5
Cc1cc(NS(=O)(=O)c2ccccc2)c(OS(=O)(=O)c2ccccc2)cc1C | UACC-257 melanoma | % | 109
Nc1nc(N)c(-c2ccc(Cl)cc2)c(/C=C/c2ccc([N+](=O)[O-])cc2)n1 | UACC-257 melanoma | % | 66.3
C[C@@H]1CC[C@@H]2[C@@H]1[C@H](OC(=O)/C=C/c1ccccc1)[C@]1(CCCOCCOCCOCCOC(=O)CCCC[C@@H]3SC[C@@H]4NC(=O)N[C@@H]43)C[C@@H](OC(=O)CO)[C@@]2(C)O1 | UACC-257 melanoma | % | 109
CCOC(=O)C1=C(C)NC(SCc2nnc(-c3ccc(Cl)cc3)o2)=NC1c1ccc(Cl)cc1Cl (configuration not stated) | UACC-257 melanoma | % | 68.1
COc1ccc(-n2ncn(CCCCCCn3cnn(-c4ccc(OC)cc4)c3=O)c2=O)cc1 | UACC-257 melanoma | % | 101
C=C1C(=O)O[C@H]2[C@H]1CC/C(COC(=O)NCc1ccc(Cn3c(=O)sn(CCCCl)c3=O)cc1)=C\CC[C@@]1(C)O[C@@H]21 | UACC-257 melanoma | % | 10.4
N#C/C(=C\c1ccc2c(c1)OCO2)n1nnc2ccccc21 | UACC-257 melanoma | % | 64.4
COc1cccc(-c2nc3sccn3c2-c2ccnc(NCCNS(=O)(=O)c3c(Cl)cccc3Cl)c2)c1 | UACC-257 melanoma | % | 85.1
O=c1oc2ccc(Cl)cc2cc1-c1cs/c(=N/N=C\c2ccc(Cl)cc2)n1/N=C/c1ccc(Cl)cc1 | UACC-257 melanoma | % | 95.1
C=C1C(=O)O[C@H]2[C@H]1CC/C(COC(=O)/C=C\C(=O)NCc1ccc(Cn3c(=O)sn(CCCC)c3=O)cc1)=C\CC[C@@]1(C)O[C@@H]21 | UACC-257 melanoma | % | -52.8
CCN(CC)CCOc1ccc(/C(=C(\C)c2ccc(F)c(OC)c2)c2ccc(Cl)cc2)cc1 | UACC-257 melanoma | % | 12.3
